tested on: Escherichia coli TOP10; test: shrunken log2 fold change of peptide-encoding DNA abundance (4.5 h post-induction vs induction); higher = less antimicrobial activity (less host growth inhibition); settings: time post-induction: 4.5 h; library: site-saturation at positions 5, 18, 19, 20;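 note: peptides expressed intracellularly from a pBAD plasmid library in pooled LB shake-flask culture, induced with 0.3% L-arabinose, DNA abundance read by NGS, three biological replicates, DESeq2 with apeglm shrinkage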
1 means recorded shrunken log2 fold change is 0.06 or above; -1 means it is below 0.06.

stdin: Does the sequence RRIRMRPPRLPRPRPRPVYCPRP have recorded shrunken log2 fold change that is 0.06 or more?
stdout: -1

stdin: Does the sequence RRIRYRPPRLPRPRPRPRHEPRP have recorded shrunken log2 fold change that is 0.06 or more?
stdout: -1

stdin: Does the sequence RRIRMRPPRLPRPRPRPMHEPRP have recorded shrunken log2 fold change that is 0.06 or more?
stdout: 1

stdin: Does the sequence RRIRKRPPRLPRPRPRPFVVPRP have recorded shrunken log2 fold change that is 0.06 or more?
stdout: -1

stdin: Does the sequence RRIRMRPPRLPRPRPRPQTRPRP have recorded shrunken log2 fold change that is 0.06 or more?
stdout: 1

stdin: Does the sequence RRIRMRPPRLPRPRPRPGLRPRP have recorded shrunken log2 fold change that is 0.06 or more?
stdout: 1

stdin: Does the sequence RRIRCRPPRLPRPRPRPHYNPRP have recorded shrunken log2 fold change that is 0.06 or more?
stdout: -1

stdin: Does the sequence RRIRVRPPRLPRPRPRPHYEPRP have recorded shrunken log2 fold change that is 0.06 or more?
stdout: -1

stdin: Does the sequence RRIRCRPPRLPRPRPRPPMKPRP have recorded shrunken log2 fold change that is 0.06 or more?
stdout: 1

stdin: Does the sequence RRIRHRPPRLPRPRPRPLEHPRP have recorded shrunken log2 fold change that is 0.06 or more?
stdout: -1

stdin: Does the sequence RRIRERPPRLPRPRPRPVDSPRP have recorded shrunken log2 fold change that is 0.06 or more?
stdout: -1

stdin: Does the sequence RRIRLRPPRLPRPRPRPCAIPRP have recorded shrunken log2 fold change that is 0.06 or more?
stdout: -1

stdin: Does the sequence RRIRMRPPRLPRPRPRPAQSPRP have recorded shrunken log2 fold change that is 0.06 or more?
stdout: 1

stdin: Does the sequence RRIRERPPRLPRPRPRPKSYPRP have recorded shrunken log2 fold change that is 0.06 or more?
stdout: -1

stdin: Does the sequence RRIRDRPPRLPRPRPRPSSSPRP have recorded shrunken log2 fold change that is 0.06 or more?
stdout: 1

stdin: Does the sequence RRIRARPPRLPRPRPRPCGGPRP have recorded shrunken log2 fold change that is 0.06 or more?
stdout: 1

stdin: Does the sequence RRIRTRPPRLPRPRPRPKDDPRP have recorded shrunken log2 fold change that is 0.06 or more?
stdout: -1

stdin: Does the sequence RRIRLRPPRLPRPRPRPHWPPRP have recorded shrunken log2 fold change that is 0.06 or more?
stdout: -1

stdin: Does the sequence RRIRKRPPRLPRPRPRPFAFPRP have recorded shrunken log2 fold change that is 0.06 or more?
stdout: 1

stdin: Does the sequence RRIRWRPPRLPRPRPRPGYWPRP have recorded shrunken log2 fold change that is 0.06 or more?
stdout: -1

stdin: Does the sequence RRIRFRPPRLPRPRPRPDHAPRP have recorded shrunken log2 fold change that is 0.06 or more?
stdout: -1

stdin: Does the sequence RRIRQRPPRLPRPRPRPVCSPRP have recorded shrunken log2 fold change that is 0.06 or more?
stdout: -1

stdin: Does the sequence RRIRQRPPRLPRPRPRPIPVPRP have recorded shrunken log2 fold change that is 0.06 or more?
stdout: -1

stdin: Does the sequence RRIRIRPPRLPRPRPRPGTCPRP have recorded shrunken log2 fold change that is 0.06 or more?
stdout: -1

stdin: Does the sequence RRIRTRPPRLPRPRPRPNMFPRP have recorded shrunken log2 fold change that is 0.06 or more?
stdout: -1

stdin: Does the sequence RRIRTRPPRLPRPRPRPWQEPRP have recorded shrunken log2 fold change that is 0.06 or more?
stdout: 1

stdin: Does the sequence RRIRRRPPRLPRPRPRPSAIPRP have recorded shrunken log2 fold change that is 0.06 or more?
stdout: 1

stdin: Does the sequence RRIRFRPPRLPRPRPRPGGHPRP have recorded shrunken log2 fold change that is 0.06 or more?
stdout: -1

stdin: Does the sequence RRIRWRPPRLPRPRPRPDTTPRP have recorded shrunken log2 fold change that is 0.06 or more?
stdout: 1
